Test system: MCF7 breast
Measurement description: NCI tumour cell line growth inhibition, 48 h
Recorded metric: TGI

COC(=O)c1c2c(cc3c1CC1(Cc4ccccc4C1=O)C3)CCC2 (centres undefined) : > 100 µM
COc1cc(/C(Cl)=C/C=C/C(=O)c2c(C)[n+]([O-])c3ccc(Cl)cc3[n+]2[O-])cc(OC)c1OC : > 50 µM
O=C1C(N2CCCC2)=CC(=O)c2c(O)c(N3CCCC3)c(Cl)c(O)c21 : > 10 µM

# evaluate next
Briefly, TGI measured for Nc1nc(N)c2ncn(CC3CCC(CO)C3)c2n1 (centres undefined) : > 100 µM

----------
Test system: HS 578T breast
Measurement description: NCI tumour cell line growth inhibition, 48 h
The molecules listed here are annotated with their TGI.

COc1cccc2c1C(=O)c1c(O)c3c(c(O)c1C2=O)CC(O)(C(C)=O)CC3OC1CC(N)C(O)C(C)O1 (stereo not drawn) : 0.421 µg/mL

Briefly, TGI measured for CCCC(=O)O : > 18.7 mM

Briefly, TGI measured for FC(F)(F)c1ccc(-c2nc(-c3nc4cc(Cl)c(Cl)cc4[nH]3)c3ccccn23)cc1 : > 0.1 mM

----------
Tested on: MDA-MB-231 breast
Measurement description: NCI tumour cell line growth inhibition, 48 h
The compounds listed here are annotated with their TGI.
Give just the number in µM; leave the unit off.

CC1=C([Se]CC(OC(=O)[C@@H](CSSC(C)(C)C)NC(=O)OC(C)(C)C)C(=O)NC(C)(C)C)C(=O)c2ccccc2C1=O (stereo not given in full) : 2.76

# evaluate next
Briefly, TGI measured for CCCC(=O)O : 18000

----------
System: UACC-257 melanoma
Measurement description: NCI tumour cell line growth inhibition, 48 h; in the data active means GI50 below about 0.43 µM; inactive means the rest
Your reply should match one of these outcome classes. active, inactive

O=P([O-])(O)OP(=O)([O-])O.[NH-][C@H]1CCCC[C@@H]1[NH-].[OH-].[OH-].[Pt+4] : inactive
COC1=CC(c2ccc[nH]2)=N/C1=C\c1[nH]c(C)c(C(=O)OCc2ccccc2)c1C : active
O=C(Nc1ccc(Cl)cc1Cl)c1ccc(NC2=C(Cl)C(=O)N(Cc3ccccc3)C2=O)cc1 : inactive
NS(=O)(=O)c1ccc(NC(=O)c2ccc(NC3=C(Cl)C(=O)N(Cc4ccccc4)C3=O)cc2)cc1 : inactive
COc1cc(C(=O)OCCCCCCCCCCC[P+](c2ccccc2)(c2ccccc2)c2ccccc2)ccc1O : inactive
Cc1c2cc[nH]c(=O)c2c(C)c2c1[nH]c1cc(OCCN3CCN(C)CC3)ccc12 : inactive

Task: Just curious, what result did COc1cc2c(/C=N\N=C(N)N)c(Cl)[nH]c2cc1C get here?
Output: inactive

Task: Just curious, what result did O=C(c1ccccc1)c1c(NCC(O)CN2CCCC2)n(Cc2ccccc2)c(=O)n(Cc2ccccc2)c1=O (stereo unspecified) get here?
Output: inactive

Task: Just curious, what result did Cc1nc2sccn2c1/C=C1/C(=O)Nc2ccccc21 get here?
Output: inactive

Task: Just curious, what result did COc1ccc(C#Cc2ccccc2C#CCCCCO)cc1 get here?
Output: inactive

Task: Just curious, what result did CO[C@H](C(=O)[C@@H](O)[C@@H](C)O)[C@@H]1Cc2cc3cc(O[C@H]4C[C@@H](O[C@H]5C[C@@H](O)[C@H](O)C(C)O5)[C@H](O)C(C)O4)c(C)c(O)c3c(O)c2C(=O)[C@H]1O[C@H]1C[C@@H](O[C@H]2C[C@@H](O[C@H]3C[C@@H](OC)[C@H](O)C(C)O3)[C@@H](O)C(C)O2)C(O)(O)C(C)O1 (stereo partly specified) get here?
Output: active

----------
Test system: SNB-19 CNS
Measurement description: NCI tumour cell line growth inhibition, 48 h
The compounds listed here are annotated with their TGI.

CC(C)(C)OC(=O)CN1CCNCCNCC1 : > 100 µM
O=C1CSC2(CC(/C=C/c3ccccc3)=NN2c2cccc(S(=O)(=O)O)c2)N1c1nc2ccccc2s1 (centres undefined) : 51.7 µM
O=C(COc1ccc(OCC(=O)N2C(=O)CC(=O)N(c3ccccc3)C2=S)cc1)N1C(=O)CC(=O)N(c2ccccc2)C1=S : > 100 µM
C=CCC1OC(C)(C)Oc2ccc(OCOCCOC)cc21 (centres undefined) : > 100 µM
O=[As](O)(O)c1ccc(NCc2ccccc2)cc1 : > 100 µM
O=C(c1ccc2ccccc2c1O)N1CCCCC1 : > 100 µM
O=C(Nc1cccc2ccccc12)Oc1ccccc1C1CCCCC1 : > 100 µM
CC1CC2C3CC(F)C4=CC(=O)C=CC4(C)C3(F)C(O)CC2(C)C1(O)C(=O)COC(=O)C(C)(C)C (centres undefined) : > 100 µM
O=C1N[C@H]2c3c(Cl)sc(Cl)c3/C(=N/O)[C@H]2O1 : > 100 µM
O=C1Oc2ccccc2C(=O)/C1=C/N1C(=O)N/C(=C\c2ccccc2O)C1=O : > 100 µM

Briefly, TGI measured for CCC(C)CN1C(=O)NC(C)(Cc2ccccc2)C1=O (centres undefined) : > 100 µM

Briefly, TGI measured for c1ccc(SC2(Sc3ccccc3)CCCC2)cc1 : > 100 µM

Briefly, TGI measured for C=C(CNC(=O)Nc1ccc(-c2ccccc2)cc1)c1ccc(C(=O)Nc2ccccc2N)cc1 : > 100 µM

Briefly, TGI measured for COc1ccc(-c2nc(N)c(C#N)c3c2CCS(=O)(=O)c2ccc(C)cc2-3)cc1OC : > 100 µM

Briefly, TGI measured for CC1=NN(C(=O)CSc2nnc(SCC(=O)N3N=C(C)CC3(O)c3ccccc3)s2)C(O)(c2ccccc2)C1 (centres undefined) : > 100 µM

Briefly, TGI measured for Cc1ccc(C)n1-c1ccccc1C1SCCCS1 : > 100 µM

Briefly, TGI measured for C#CCC[C@@H]1O[C@@]1(C)CC/C=C(\C)CC/C=C/C=O : > 100 µM

----------
Tested on: HOP-62 NSCLC
Measurement description: NCI tumour cell line growth inhibition, 48 h
Recorded metric: GI50

In the examples that follow, each entry is paired with its recorded GI50.
O=C(Nc1ccc(Cl)cc1Cl)c1ccc(NC2=C(Cl)C(=O)N(Cc3ccccc3)C2=O)cc1 : 20.2 µM
CC1=C([Se]CC(OC(=O)[C@@H](CSSC(C)(C)C)NC(=O)OC(C)(C)C)C(=O)NC(C)(C)C)C(=O)c2ccccc2C1=O (some centres not stated) : 0.762 µM
Cc1cc(C)nc(NC(N)=NCCc2ccccc2)n1 : 3.16 µM

Briefly, GI50 measured for COc1cccc([C@H]2CC(=O)c3cc4c(cc3N2)OCO4)c1 : 2.56 µM

Briefly, GI50 measured for CC1[C@@H]2[C@@H](C=C3C4CCC5Cc6nc7c(nc6C[C@@]5(C)C4C[C@H](O)[C@]32CO)CC2CCC3C4=C[C@H]5O[C@@]6(O[C@@](C)(CO)C[C@@H]6O)C(C)[C@@]5(O)[C@]4(C)[C@@H](O)CC3[C@]2(C)C7)O[C@]12CCC(C)(C)O2 (some centres not stated) : < 0.000365 µM

Briefly, GI50 measured for NS(=O)(=O)c1ccc(NC(=O)c2ccc(NC3=C(Cl)C(=O)N(Cc4ccccc4)C3=O)cc2)cc1 : 10.4 µM

Briefly, GI50 measured for Cc1[nH]ncc1-c1cc2nc(C3CC4CCN3CC4)[nH]c(=O)c2s1 (configuration not stated) : 2.83 µM

Briefly, GI50 measured for Nc1ccn(C2OC(CO)C(O)C2F)c(=O)n1 (configuration not stated) : > 5000 µM

Briefly, GI50 measured for O=[N+]([O-])c1ccc(Nc2ccccc2-c2ccccc2)c2nonc12 : 17.4 µM

----------
System: HS 578T breast
Measurement description: NCI tumour cell line growth inhibition, 48 h
The compounds listed here are annotated with their TGI.

In the examples that follow, each entry is paired with its recorded TGI.
Cc1ccc(S(=O)(=O)c2scc(-c3ccccc3)c2C)cc1 : > 100 µM
CCc1nn(CN2CCN(C)CC2)c(=S)n1/N=C\c1ccc(-c2ccc([N+](=O)[O-])cc2)o1 : > 100 µM
CCC(C)[C@H](NC(=O)[C@H](Cc1ccccc1)NC(=O)N(CC)c1ccccc1)C(=O)N[C@@H](CC(C)C)C(=O)OC (stereo not given in full) : > 100 µM

// returns TGI for Nc1ccn(C2OC(CO)C(O)C2F)c(=O)n1 (stereo not given) with HS 578T breast; value = > 5000 µM

// returns TGI for CCOc1cc2c(cc1O)/C(=N\N)C[C@@H]1[C@@H]2CC[C@]2(C)[C@@H](O)CC[C@@H]12 with HS 578T breast; value = > 27 µM

----------
Tested on: DLD-1 colon
Measurement description: NCI tumour cell line growth inhibition, 48 h
The molecules listed here are annotated with their TGI.

In the examples that follow, each entry is paired with its recorded TGI.
Cn1cnc([N+](=O)[O-])c1Sc1nc2cc(Cl)c(F)cc2[nH]1 : 22.7 µM
C[N+]1(C)CCCC1C(=O)[O-] (configuration not stated) : > 100 µM
CCN(CC)CCNC(=O)c1ccccc1NC(=O)C(=O)Nc1ccccc1C(=O)NCCN(CC)CC : > 100 µM

Briefly, TGI measured for O=C(Nc1c(O)[nH]c(=S)[nH]c1=O)c1ccccn1 : > 100 µM

Briefly, TGI measured for CCC[CH2][Sn]([CH2]CCC)([O]C(=O)c1c(F)cccc1F)[O]C(=O)c1c(F)cccc1F : 1.91 µM

Briefly, TGI measured for O=C(NCCCCCCCCNC(=O)c1cnc2ccccc2n1)c1cnc2ccccc2n1 : > 100 µM

Briefly, TGI measured for COC(=O)C(=O)C(C(=O)Nc1cccc(C)c1C)C1Sc2ccccc2NC1=O (configuration not stated) : > 25 µM
